System: Mus musculus
Experiment: Analgesic activity in ICR mouse assessed as pain threshold variation at 25 umol/kg, po administered as single dose measured after 150 mins by tail flick test relative to control
Assay type: functional
The label Yes is reserved for Activity strictly under 10%; No covers values equal to or above it.

Ask | Is 10% strictly greater than the compound's reported Activity? compound: O=C(OCc1ccccc1)[C@@H]1CCCN1C(=O)CN(c1ncnc2c1ncn2C1CCCCO1)C1CC1 (stereo not given in full)
Reply | Yes

Ask | Is 10% strictly greater than the compound's reported Activity? compound: O=C(CN(c1ncnc2c1ncn2C1CCCCO1)C1CC1)N[C@@H](Cc1ccccc1)C(=O)OCc1ccccc1 (stereo not given in full)
Reply | Yes

Ask | Is 10% strictly greater than the compound's reported Activity? compound: O=C(O)C[C@H](NC(=O)CN(c1nc(Cl)nc2[nH]cnc12)C1CC1)C(=O)O
Reply | No

Ask | Is 10% strictly greater than the compound's reported Activity? compound: C[C@H](NC(=O)CN(c1nc(Cl)nc2[nH]cnc12)C1CC1)C(=O)O
Reply | No

Ask | Is 10% strictly greater than the compound's reported Activity? compound: CCOC(=O)CN(c1nc(Cl)nc2c1ncn2C1CCCCO1)C1CC1 (stereo not given)
Reply | No

====

Test system: Mus musculus
Experiment: Analgesic activity in ICR mouse assessed as pain threshold variation at 6.25 umol/kg, po administered as single dose measured after 180 mins by tail flick test relative to control
Type: functional
For each record, write down the corresponding Activity.
Respond with the bare value in %.

Record N=C(N)NCCC[C@H](NC(=O)CN(c1nc(Cl)nc2[nH]cnc12)C1CC1)C(=O)O . Reported Activity: 2.15

Record NCCCC[C@H](NC(=O)CN(c1nc(Cl)nc2[nH]cnc12)C1CC1)C(=O)OCc1ccccc1 . Reported Activity: 3.95

Record NCCCC[C@H](NC(=O)CN(c1nc(Cl)nc2[nH]cnc12)C1CC1)C(=O)O . Reported Activity: 2.61

Record CC(C)C[C@H](NC(=O)CN(c1nc(Cl)nc2[nH]cnc12)C1CC1)C(=O)O . Reported Activity: 2.8

Record CC(C)[C@H](NC(=O)CN(c1nc(Cl)nc2[nH]cnc12)C1CC1)C(=O)OCc1ccccc1 . Reported Activity: 3.22

Record O=C(CN(c1nc(Cl)nc2[nH]cnc12)C1CC1)NCC(=O)OCc1ccccc1 . Reported Activity: 2.64

====

For each record, write down the corresponding Activity.
Tested on: Mus musculus
Experiment: Analgesic activity in ICR mouse assessed as pain threshold variation at 25 umol/kg, po administered as single dose measured after 150 mins by tail flick test relative to control
Assay type: functional
Respond with the bare value in %.

Item O=C(CN(c1nc(Cl)nc2[nH]cnc12)C1CC1)NCC(=O)OCc1ccccc1 was tested on Mus musculus; the reported Activity is 17.99

Item C[C@H](NC(=O)CN(c1ncnc2c1ncn2C1CCCCO1)C1CC1)C(=O)OCc1ccccc1 (stereo not given in full) was tested on Mus musculus; the reported Activity is 6.01

Item O=C(OCc1ccccc1)[C@@H]1CCCN1C(=O)CN(c1nc(Cl)nc2[nH]cnc12)C1CC1 was tested on Mus musculus; the reported Activity is 31.09

Item C[C@@H](O)[C@H](NC(=O)CN(c1nc(Cl)nc2[nH]cnc12)C1CC1)C(=O)OCc1ccccc1 was tested on Mus musculus; the reported Activity is 12.76

Item O=C(O)CNC(=O)CN(c1nc(Cl)nc2[nH]cnc12)C1CC1 was tested on Mus musculus; the reported Activity is 9.08

Item O=C(CN(c1ncnc2c1ncn2C1CCCCO1)C1CC1)N[C@@H](CC(=O)OCc1ccccc1)C(=O)OCc1ccccc1 (stereo not given in full) was tested on Mus musculus; the reported Activity is 0.06

Item C[C@@H](O)[C@H](NC(=O)CN(c1ncnc2c1ncn2C1CCCCO1)C1CC1)C(=O)OCc1ccccc1 (stereo not given in full) was tested on Mus musculus; the reported Activity is 6.53

Item NC(=O)C[C@H](NC(=O)CN(c1nc(Cl)nc2[nH]cnc12)C1CC1)C(=O)OCc1ccccc1 was tested on Mus musculus; the reported Activity is 13.49

Item C[C@H](NC(=O)CN(c1nc(Cl)nc2[nH]cnc12)C1CC1)C(=O)OCc1ccccc1 was tested on Mus musculus; the reported Activity is 23

Item CC(C)[C@H](NC(=O)CN(c1ncnc2c1ncn2C1CCCCO1)C1CC1)C(=O)OCc1ccccc1 (stereo not given in full) was tested on Mus musculus; the reported Activity is 21.08

Item O=C(CN(c1nc(Cl)nc2[nH]cnc12)C1CC1)N[C@@H](CO)C(=O)O was tested on Mus musculus; the reported Activity is 18.83

Item CC(C)[C@H](NC(=O)CN(c1nc(Cl)nc2[nH]cnc12)C1CC1)C(=O)O was tested on Mus musculus; the reported Activity is 7.86

Item CC(C)C[C@H](NC(=O)CN(c1nc(Cl)nc2[nH]cnc12)C1CC1)C(=O)OCc1ccccc1 was tested on Mus musculus; the reported Activity is 5.26

Item CSCC[C@H](NC(=O)CN(c1nc(Cl)nc2[nH]cnc12)C1CC1)C(=O)O was tested on Mus musculus; the reported Activity is 4.14

Item C[C@@H](O)[C@H](NC(=O)CN(c1nc(Cl)nc2[nH]cnc12)C1CC1)C(=O)O was tested on Mus musculus; the reported Activity is 24.02

Item NC(=O)CC[C@H](NC(=O)CN(c1nc(Cl)nc2[nH]cnc12)C1CC1)C(=O)OCc1ccccc1 was tested on Mus musculus; the reported Activity is 31.07

Item N=C(N)NCCC[C@H](NC(=O)CN(c1nc(Cl)nc2[nH]cnc12)C1CC1)C(=O)O was tested on Mus musculus; the reported Activity is 7.19

Item O=C(CN(c1nc(Cl)nc2[nH]cnc12)C1CC1)N[C@@H](Cc1c[nH]c2ccccc12)C(=O)OCc1ccccc1 was tested on Mus musculus; the reported Activity is 10.71

Item NCCCC[C@H](NC(=O)CN(c1nc(Cl)nc2[nH]cnc12)C1CC1)C(=O)O was tested on Mus musculus; the reported Activity is 11.64

Item O=C(CN(c1nc(Cl)nc2[nH]cnc12)C1CC1)N[C@@H](CCC(=O)OCc1ccccc1)C(=O)OCc1ccccc1 was tested on Mus musculus; the reported Activity is 44.46

Item CSCC[C@H](NC(=O)CN(c1nc(Cl)nc2[nH]cnc12)C1CC1)C(=O)OCc1ccccc1 was tested on Mus musculus; the reported Activity is 17.64

Item O=C(CN(c1ncnc2c1ncn2C1CCCCO1)C1CC1)N[C@@H](CO)C(=O)OCc1ccccc1 (stereo not given in full) was tested on Mus musculus; the reported Activity is 18.32

Item CSCC[C@H](NC(=O)CN(c1ncnc2c1ncn2C1CCCCO1)C1CC1)C(=O)OCc1ccccc1 (stereo not given in full) was tested on Mus musculus; the reported Activity is 17.47

Item CC[C@H](C)[C@H](NC(=O)CN(c1nc(Cl)nc2[nH]cnc12)C1CC1)C(=O)OCc1ccccc1 was tested on Mus musculus; the reported Activity is 6.9

Item O=C(CN(c1nc(Cl)nc2[nH]cnc12)C1CC1)N[C@@H](CO)C(=O)OCc1ccccc1 was tested on Mus musculus; the reported Activity is 27.88

Item O=C(CN(c1ncnc2c1ncn2C1CCCCO1)C1CC1)N[C@@H](Cc1cnc[nH]1)C(=O)OCc1ccccc1 (stereo not given in full) was tested on Mus musculus; the reported Activity is 5.31

Item O=C(CN(c1nc(Cl)nc2[nH]cnc12)C1CC1)N[C@@H](CC(=O)OCc1ccccc1)C(=O)OCc1ccccc1 was tested on Mus musculus; the reported Activity is 6.68

Item O=C(O)[C@@H]1CCCN1C(=O)CN(c1nc(Cl)nc2[nH]cnc12)C1CC1 was tested on Mus musculus; the reported Activity is 7.29

Item O=C(CN(c1nc(Cl)nc2[nH]cnc12)C1CC1)N[C@@H](Cc1ccc(O)cc1)C(=O)OCc1ccccc1 was tested on Mus musculus; the reported Activity is 9.38

Item CC[C@H](C)[C@H](NC(=O)CN(c1ncnc2c1ncn2C1CCCCO1)C1CC1)C(=O)OCc1ccccc1 (stereo not given in full) was tested on Mus musculus; the reported Activity is 16.43

Item CC(C)C[C@H](NC(=O)CN(c1nc(Cl)nc2[nH]cnc12)C1CC1)C(=O)O was tested on Mus musculus; the reported Activity is 9.13

Item NC(=O)CC[C@H](NC(=O)CN(c1nc(Cl)nc2[nH]cnc12)C1CC1)C(=O)O was tested on Mus musculus; the reported Activity is 11.38

Item CC(C)[C@H](NC(=O)CN(c1nc(Cl)nc2[nH]cnc12)C1CC1)C(=O)OCc1ccccc1 was tested on Mus musculus; the reported Activity is 17.91

Item O=C(O)CC[C@H](NC(=O)CN(c1nc(Cl)nc2[nH]cnc12)C1CC1)C(=O)O was tested on Mus musculus; the reported Activity is 29.46

Item CC(C)C[C@H](NC(=O)CN(c1ncnc2c1ncn2C1CCCCO1)C1CC1)C(=O)OCc1ccccc1 (stereo not given in full) was tested on Mus musculus; the reported Activity is 6.47

FYI, the data here is from ChEMBL document CHEMBL1152546.
